Biological target: DRB1*0405 complex (HLA-DR4, DRA-DRB1*0405) (Homo sapiens, UniProt P01903+P01911, A100R/A169T/D86S/F76Y/I96L/K127E/L162R/M171V/N62H/P40V/Q125Y/R42H/S133A/S149N/S66Y/V115G/V209L/W38E)
Type: binding
Where no end group is shown, it is not given here.
readout-name: pIC50
Interpret pIC50 as the negative base-10 log of the concentration measured in mol/L.

Here is how some sequences turned out for pIC50.
[
  {
    "primary-sequence": "AAFAAMASAA",
    "pIC50": 5.44
  },
  {
    "primary-sequence": "AAYAALANAA",
    "pIC50": 5.85
  },
  {
    "primary-sequence": "KAAYAAVAVAA",
    "pIC50": 5.29
  }
]

Lab note: next sequence to report on.
Problem: Find the measured pIC50 of AALAAIASAA and report it.
Result: 4.96
